Hey, just so you know, these numbers are from ChEMBL document CHEMBL3885861.

species: Rattus norvegicus; experiment: Open TG-GATES - Regimen: Daily Repeat; assay type: toxicity, organism-based, Sprague-Dawley; parameters: regimen Daily Repeat, gender Male, age 6 weeks; details: in vivo, po, 0 mg/kg, […], tissue Plasma, route gavage, dose level Control, time 7 day
reported_property: LDH
Reply with the number and its unit after it.

>  <compound>
CC(CN1c2ccccc2Sc2ccccc21)N(C)C (centres undefined)

>  <reported_property>
LDH

>  <val>
212.4 IU/L

$$$$
>  <compound>
Cc1cccc(Nc2ccccc2C(=O)O)c1C

>  <reported_property>
LDH

>  <val>
181 IU/L

$$$$
>  <compound>
CN(C)[C@@H]1C(O)=C(C(N)=O)C(=O)[C@@]2(O)C(O)=C3C(=O)c4c(O)cccc4[C@@](C)(O)[C@H]3C[C@@H]12

>  <reported_property>
LDH

>  <val>
107.6 IU/L

$$$$

Identify measured LDH associated with CN1C(C(=O)Nc2ccccn2)=C(O)c2sc(Cl)cc2S1(=O)=O 206 IU/L
